Biological target: Alpha-bungarotoxin (Bungarus multicinctus) (UniProt P60615)
Sequence (P60615 whole entry, looked up): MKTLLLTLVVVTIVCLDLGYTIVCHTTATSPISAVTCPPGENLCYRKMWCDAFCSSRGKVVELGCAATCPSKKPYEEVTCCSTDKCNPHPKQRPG
Experiment: alpha-bungarotoxin binders on microarray, profiling panel, artefact control for SMM control protein annotation, biochemical, small-molecule microarray, Alexa647 label, 635/667 nm fluorescence (AID 1117)
Details: alpha-BTX-A647 binding fluorescence, higher = more signal
Everything with composite z-score lower than 1 is Not met; everything else, including exactly 1, is Met.

[N-]=[N+]=NCc1ccccc1C[C@]1(C(=O)O)N=C(c2ccc(OCCCO)cc2)O[C@H]1c1ccccc1 | Not met
CC(C)NC(=O)[C@@H]1c2ccccc2C(=O)N(Cc2ccccc2Cl)[C@H]1c1ccc(CO)cc1 | Not met
COCCOC(=O)N1C(=O)[C@@]2(c3cc(C#CCNC(N)=O)ccc31)[C@H](C(=O)N1CCc3cc(OC)c(OC)cc3C1)[C@H]1C(=O)O[C@H](c3ccccc3)[C@H](c3ccccc3)N1[C@@H]2c1ccc(OCCO)cc1 | Not met
CCOC(=O)C[C@H]1[C@H](OC(=O)Cc2ccc3c(c2)OCO3)[C@@H](NC(=O)c2ccc(-c3ccccc3)cc2)c2cc(OCCCO)ccc2N1C(=O)c1ccccc1 | Not met
COC(=O)[C@@]1(Cc2ccccc2)[C@H]2c3cc(C(=O)N(C)C)n(Cc4cc(C)n(C)n4)c3C[C@H]2CN1C(=O)c1ccccc1 | Not met
[N-]=[N+]=Nc1ccccc1[C@H]1OC(c2ccc(OCCCO)cc2)=N[C@@]1(CCS(=O)(=O)c1ccccc1)C(=O)O | Not met
O=C(CS)NCCCCCCNC(=O)[C@@H]1C[C@@H]2C(=O)N3CCC[C@H]3C(=O)N2[C@@H]1c1ccc(O)cc1 | Not met
Cc1ccccc1C(O)C1C=CC2C(=O)N(C)C(=O)C2N1N1CCCCC1 (centres undefined) | Met
C=CCC(OC(C)=O)[C@@H]1[C@@H](N(Cc2ccc(-c3ccccc3)cc2)C(=O)Cc2ccc(OC)cc2)c2cc(OCCCO)ccc2N1C(=O)c1ccc2ccccc2n1 (some centres undefined) | Not met
CN(C)CCCNC(=O)[C@@]1(Cc2ccccc2I)c2ccccc2C(=O)N(Cc2ccccc2C(F)(F)F)[C@H]1c1ccc(CO)cc1 | Not met
COc1ccc([Si](C)(C)[C@H]2[C@H](CCn3cc(CCO)nn3)O[C@@]3(C(=O)N(Cc4ccc(N5CCOC5=O)cc4)c4ccccc43)[C@@H]2C)cc1 | Met
O=C1OCCC=C[C@H]2OC34C=CCN(Cc5ccccc5)C(=O)[C@H]3N(CCCCCO)C(=O)[C@@H]4C12 (some centres undefined) | Not met
COc1ccc(CCN2C(=O)[C@@]3(Cc4ccccc42)c2ccccc2C(=O)N(Cc2ccccc2Cl)[C@H]3c2ccc(CO)cc2)cc1 | Not met
CC(C)N1C(=O)c2ccccc2[C@@H](C(=O)NCCCN(C)C)[C@@H]1c1ccc(CO)cc1 | Not met
CCCCC=C[C@@H](NC(=O)c1ccco1)c1ccccc1 | Met
Cc1ccc(S[C@]2(C(=O)NCc3ccccc3)CC(=O)N(Cc3ccccc3)[C@@H]2c2ccc(CO)cc2)cc1 | Not met
C=CCOC(=O)[C@@H]1[C@H]2C(=O)O[C@H](c3ccccc3)[C@H](c3ccccc3)N2[C@H](c2ccc(OCCOC(=O)[C@@H]3C[C@@H]4C(=O)N[C@@H](Cc5ccccc5)C(=O)N4[C@@H]3c3cccc(OCCO)c3)cc2)[C@@]12C(=O)Nc1ccc(I)cc12 | Met
CCCN1C(=O)[C@]2(COC(c3ccc(OCCCO)cc3)=N2)Cc2ccccc21 | Met
COC(=O)[C@@]1(Cc2ccccc2)[C@H]2c3cc(C(=O)N4CCCC4)n(C)c3C[C@H]2CN1C(=O)c1ccccc1 | Not met
C=CC[C@@]1(C(=O)O)N=C(c2ccc(OCCCO)cc2)O[C@@H]1c1ccccc1N=[N+]=[N-] | Met
CS(=O)(=O)CCOC(=O)C1=CC(c2ccc(CO)cc2)=CC(C2CC2)N(Cc2cc3c(cc2Br)OCO3)C=C1C(=O)OCCS(C)(=O)=O (centres undefined) | Met
COCCOC(=O)N1C(=O)[C@@]2(c3ccccc31)[C@H](c1ccc(O)cc1)N1[C@H](c3ccccc3)[C@H](c3ccccc3)OC(=O)[C@H]1[C@@H]2C(=O)N1CCc2cc(OC)c(OC)cc2C1 | Not met
[N-]=[N+]=NCc1ccccc1C[C@]1(C(=O)O)N=C(c2ccc(OCCCO)cc2)O[C@H]1c1ccccc1CN=[N+]=[N-] | Met
C=CC(COC(C)=O)NS(=O)(=O)c1ccc(Br)cc1 (centres undefined) | Not met

====

Test: E. coli acrAB mutant growth effects, primary screen, E. coli filamentation inducers, strain DRC39, OD650, 48 h (AID 1179);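 note: screen aims at cell division blockers that make cells filament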
Conditions: E. coli DRC39 delta-acrAB growth, higher = more signal, called active from +8 up or from −8 down
Everything with z-score lower than 0.4 is false; everything else, including exactly 0.4, is true.

COc1ccc(C(=O)Nc2cccc(CN3C(=O)[C@]4(O[C@H](CC(=O)N5CCC[C@H]5CO)[C@@H]([Si](C)(C)c5ccc(OC)cc5)[C@@H]4C)c4ccccc43)c2)cc1 | true
CS(=O)(=O)CCOC(=O)C1=CC(c2ccc(CO)cc2)=CC(C2CC2)N(Cc2cc3c(cc2Br)OCO3)C=C1C(=O)OCCS(C)(=O)=O (stereo not given) | false
C=CCC(OC(C)=O)[C@@H]1[C@@H](N(Cc2cc3ccccc3o2)C(=O)c2ccc(C)cc2)c2cc(OCCCO)ccc2N1C(=O)c1ccc2ccccc2c1 (stereo not given in full) | true
O=C(O)[C@H]1C[C@H]2C(=O)NCC(=O)N2[C@H]1c1ccc(O)cc1 | true
CC(C)c1ccc(NN2C(C(O)c3c(F)cccc3Cl)C=CC3C(=O)N(c4ccccc4)C(=O)C32)cc1 (stereo not given) | false

====

Experiment: MM1S cell viability effects, profiling panel, calcein-AM fluorescence, 48 h, basal (AID 1165);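 note: viability of MM1S multiple myeloma cells under basal unstimulated conditions; test concentration not given here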
Details: higher = more signal
Bucketed by reported z-score, buckets being low class (below -2), middle class (-2 to below -0.09), high class (-0.09 or more)

C=CCC(OC(C)=O)[C@@H]1[C@@H](N(Cc2ccc(-c3cccc(C(F)(F)F)c3)o2)C(=O)c2ccc(C)cc2)c2cc(OCCCO)ccc2N1C(=O)c1ccc(-c2ccccc2)cc1 (some centres undefined) | high class
COCCOC(=O)N1C(=O)[C@@]2(c3ccccc31)[C@H](C(=O)Nc1nc3ccccc3s1)[C@H]1C(=O)O[C@H](c3ccccc3)[C@H](c3ccccc3)N1[C@@H]2c1ccc(OCCO)cc1 | low class
COCCOC(=O)N1C(=O)[C@@]2(c3cc(C#CCNC(N)=O)ccc31)[C@H](c1ccccc1OCCO)N1[C@H](c3ccccc3)[C@H](c3ccccc3)OC(=O)[C@H]1[C@@H]2C(N)=O | middle class
[N-]=[N+]=NCc1ccccc1C[C@]1(C(=O)NCC(O)CO)N=C(c2ccc(OCCCO)cc2)O[C@H]1c1ccccc1N=[N+]=[N-] (some centres undefined) | middle class
O=C(CS)NCCCCCCNC(=O)[C@H]1C[C@H]2C(=O)NCC(=O)N2[C@H]1c1ccc(O)cc1 | middle class
C=CC(=C)C1=CCO[C@@H]1[C@H]1CCCN1S(=O)(=O)c1ccccc1[N+](=O)[O-] | middle class
Cc1ccc(S[C@]2(C(=O)NC3CC3)CC(=O)N(Cc3ccccc3)[C@@H]2c2ccc(CO)cc2)cc1 | middle class
O=C(CCN1CCOCC1)c1cccc(O)c1 | low class
CCOC(=O)C1=CC[C@@H](c2ccccc2)N(S(=O)(=O)c2ccc(C)cc2)[C@H]1C(=O)OCC | high class

====

Assay: MM1S cell viability effects, profiling panel, calcein-AM fluorescence, 48 h, basal (AID 1165);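 note: viability of MM1S multiple myeloma cells under basal unstimulated conditions; test concentration not given here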
Settings: higher = more signal
Everything with z-score lower than -0.5 is Not satisfied; everything else, including exactly -0.5, is Satisfied.

CCC[C@@H]1C=C(C(=O)O)[C@H](c2ccc(C)cc2)N1S(=O)(=O)c1ccc(C)cc1 | Satisfied
Cc1cc(C)cc(N2C(=O)CS(=O)(=O)C2c2cccc([N+](=O)[O-])c2)c1 (stereo unspecified) | Satisfied
CCCCCN1CC=CC23O[C@@H]4/C=C\CCC(C)OC(=O)C4[C@H]2C(=O)N(CCCCCO)[C@@H]3C1=O (stereo partly specified) | Satisfied
N#Cc1ccc(NN2C(C(O)c3ccc([N+](=O)[O-])cc3)C=CC3C(=O)N(c4ccccc4)C(=O)C32)cc1 (stereo unspecified) | Satisfied
CCCCC=C[C@@H](NC(=O)c1ccc(C(=O)OC)cc1)c1ccccc1 | Not satisfied
CO[C@H]1O[C@H](CO)[C@@H](OC(=O)Nc2ccc3c(c2)OCO3)[C@H](OC(=O)Nc2ccccc2)[C@H]1OC(=O)Nc1ccccc1 | Not satisfied
CC1CC/C=C\[C@H]2OC34C=CCN(Cc5ccccc5)C(=O)[C@H]3N(CCCCCO)C(=O)[C@@H]4C2C(=O)O1 (stereo partly specified) | Satisfied
COC(=O)[C@@]1(Cc2ccc(OC)cc2)[C@H]2c3cc(C(=O)N4CCCC4)n(CCc4c[nH]c5cc(F)ccc45)c3C[C@H]2CN1C(=O)c1ccccc1 | Not satisfied
NC(=O)NCC#Cc1ccc2c(c1)[C@]1(C(=O)N2)[C@H](C(=O)NC[C@H](O)c2ccccc2)[C@H]2C(=O)O[C@H](c3ccccc3)[C@H](c3ccccc3)N2[C@@H]1c1ccc(O)cc1 | Not satisfied
CC(C)C[C@@H]1NC(=O)[C@H]2C[C@@H](C(=O)NCCCCCCNC(=O)CS)[C@@H](c3cccc(OCCO)c3)N2C1=O | Satisfied
CC(C)N1C(=O)c2ccccc2[C@@H](C(=O)NCCCN(C)C)[C@@H]1c1ccc(CO)cc1 | Satisfied
N[C@@H](Cc1ccccc1)Cn1cc(-c2ccccc2)nn1 | Not satisfied
O=C(CS)NCCCCCCNC(=O)[C@H]1C[C@H]2C(=O)N3CCC[C@H]3C(=O)N2[C@H]1c1cccc(OCCO)c1 | Not satisfied
O=C1O[C@H](c2ccccc2)[C@H](c2ccccc2)N2[C@H]1[C@@H](C(=O)O)[C@]1(C(=O)Nc3ccc(C#CC4=CCCCC4)cc31)[C@H]2c1ccc(OCCO)cc1 | Not satisfied
COCCOC(=O)N1C(=O)[C@@]2(c3cc(C#CCCO)ccc31)[C@H](c1ccccc1OCCO)N1[C@H](c3ccccc3)[C@H](c3ccccc3)OC(=O)[C@H]1[C@@H]2C(=O)N1CCN(c2ncccn2)CC1 | Satisfied
O=C/C=C/c1ccc2c(c1)OCO2 | Satisfied
C=CC[C@@]1(C(=O)O)N=C(c2ccc(OCCCO)cc2)O[C@@H]1c1ccccc1N=[N+]=[N-] | Not satisfied
C=CC[C@@]1(C(=O)N2CCOCC2)N=C(c2ccc(OCCCO)cc2)O[C@@H]1c1ccccc1N=[N+]=[N-] | Not satisfied
O=C(NCc1ccccc1)[C@]1(CCS(=O)(=O)c2ccccc2)N=C(c2ccc(OCCCO)cc2)O[C@@H]1c1ccccc1 | Satisfied
O=C(O)[C@@]1(Cc2ccccc2)N=C(c2ccc(OCCCO)cc2)O[C@H]1c1ccccc1 | Satisfied
O=C(OCCF)C1=CCC(c2cccc(Cl)c2)O1 (stereo unspecified) | Satisfied
[N-]=[N+]=NCc1ccccc1C[C@@]1(C(=O)NCC(O)CO)N=C(c2ccc(OCCCO)cc2)O[C@@H]1c1ccccc1CN=[N+]=[N-] (stereo partly specified) | Not satisfied
Cc1ccc(S[C@]2(C(=O)NCCN3CCOCC3)CC(=O)N(Cc3cc(C(F)(F)F)cc(C(F)(F)F)c3)[C@@H]2c2ccc(CO)cc2I)cc1 | Not satisfied
CC(C)C(O)C1C=CC2C(=O)N(c3ccccc3)C(=O)C2N1Nc1ccc(C#N)cc1 (stereo unspecified) | Satisfied
